All figures here come from PubChem BioAssay (NCI).

Test system: COLO 205 colon
Test: NCI-60 one-dose screen, 48 h
Settings: 10 µM unless noted
Compounds without any hit were thinned out: in the full panel of roughly 83,000, 20% have a hit. Active and inactive are the calls of the source. Rule for the calls: active = growth percent below 10; inactive = the rest.
Hello, when you answer, please use one of the following outcomes: active, inactive

Solved entries (count: 3):
COMPOUND | LABEL_CLASS
CC1(C)OC2[C@@H](CNC(=O)NC(=O)NC(=O)CI)O[C@@H](n3cnc4c(NC(=O)Nc5ccccc5)ncnc43)[C@H]2O1 (some centres undefined) | inactive
CC1=C/C(=C(\c2cc(C)c(O)c(C(=O)O)c2)c2c(Cl)cccc2Cl)C=C(C(=O)O)C1=O | inactive
COc1ccc(NC(=S)NNc2ccc(-c3ccc(OC)c(OC)c3)nn2)cc1 | inactive

**Q:** I'd appreciate the recorded outcome for COc1cc2c(cc1OCCCN1CCN(CCCOc3cc4c(cc3OC)C(=O)N3C[C@H](F)C[C@H]3C=N4)CC1)N=C[C@@H]1C[C@@H](F)CN1C2=O from this test.
**A:** active

----------
Tested on: HCT-15 colon
Experiment: NCI-60 one-dose screen, 48 h (100 = growth as untreated, 0 = no growth, -100 = all killed)
Conditions: 10 µM unless noted
The panel holds about 83,000 compounds, 20% with a hit somewhere; the sample as a whole holds those more often.
Label TRUE when growth < 90%; otherwise FALSE.

As a guide, the following entries are already answered.
MOLECULE | LABEL_CLASS
COC(=O)c1cc(O)c2c(c1C(=O)OC)C[C@H]1[C@@H]3CC=C4C[C@@H](O)CC[C@]4(C)[C@H]3CC[C@]21C | TRUE
COc1ccc2c(c1)c(-c1noc(C(=O)c3cn(C)c4ncc(Br)cc34)n1)cn2C | TRUE
O=C1CN(Cc2ccc(C(=O)NO)cc2)C(=O)[C@@H](Cc2ccccc2)N1 | FALSE
O=C(Nc1ccc(C(=O)/C=C/c2ccc(N3CCOCC3)cc2)cc1)Nc1ccc([N+](=O)[O-])cc1 | FALSE
O=C(Nc1ccccc1)Nc1ccc(C(=O)/C=C/c2ccc(N3CCCC3)cc2)cc1 | TRUE

**Q:** Is the reported growth for C=CCCCCOc1ccccc1-c1cnc(OCCCCC=C)n1C strictly below 90%?
**A:** TRUE

----------
Reported growth by item:
Test system: SK-MEL-28 melanoma
Experiment: NCI-60 one-dose screen, 48 h (100 = growth as untreated, 0 = no growth, -100 = all killed)
Settings: 10 µM unless noted
Compounds without any hit were thinned out: in the full panel of roughly 83,000, 20% have a hit.
Provide the reading as a plain figure in %.

**Q:** Would you mind telling me what growth value was observed for Cc1ccc(Oc2c(/C=N/NC(=O)Cn3c(=O)sc4ccccc43)c(C)nn2-c2ccccc2)cc1 ?
**A:** 93.5

**Q:** Return reported growth; argument: COc1ccc2c(c1)c(-c1noc(-c3cn(C)c4ncc(F)cc34)n1)cn2C
**A:** 91.3

**Q:** # input compound: Cc1cccc(C[C@H](NC(=O)Nc2ccc(Cl)cc2F)C(=O)N[C@@H]2C(=O)N3C[C@H](O)C[C@H]3C(=O)N3CCCC[C@H]3C(=O)N[C@@H](C)C(=O)N3C[C@H](C)C[C@H]3C(=O)O[C@H]2C)c1 ; wanted: its growth
**A:** 0.552

**Q:** What measured growth goes with CCCC(NC(=O)OCc1ccccc1)C(=O)O (stereo not given) ?
**A:** 92.8

**Q:** What value of growth has been recorded for this entry: COc1ccc(NCc2cn(-c3ccc(C(=O)O)cc3)nc2-c2ccc(C(=O)O)cc2)cc1C(F)(F)F
**A:** 97.3
